Assignment: determine reported self-cleavage for the given variants.
B1: CPEB3 Ribozyme (parent)
chain: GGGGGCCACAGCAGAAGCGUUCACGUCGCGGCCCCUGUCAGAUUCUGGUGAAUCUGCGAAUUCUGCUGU

# Variants of: B1
# assay-text: self-cleavage, relative activity (ratio to wild type); higher = more cleavage; co-transcriptional
One number for each entry.

Some variants with known self-cleavage results, for comparison:
C18U A40C | 0.197
A8G G25A | 0.113
G37A C63U | 0.364

Respectfully, I request self-cleavage for each entry included below.
1. G14A G37A
2. C35U A52G
3. G58C C66G
4. G3U C35G
5. A23U U36G
6. A15C U38C
7. G47C G68A
8. G31C C39U

(A)
1: 0.191; 2: 0.974; 3: 0.884; 4: 0.0418; 5: 0.35; 6: 0.571; 7: 1; 8: 0.197

Respectfully, I request self-cleavage for each entry included below.
1. A23G A51U
2. G17C C66U
3. U55A C66G
4. C12U A40G
5. G11U G48C

(A)
1
0.152
0.68
0.902
0.878

Respectfully, I request self-cleavage for each entry included below.
1. G3A U62A
2. U21C G58U
3. G47A A60U
4. G19C G30C
5. G4C C18U
6. A8G U46G
7. A10U G50A

(A)
[0.312, 0.952, 0.475, 0.129, 0.129, 0.86, 0.978]
